Tested on: R. oryzae UCP1295
Assay: Screening of the Pandemic Response Box library at 5 µM
Assay type: cell-based, Rhizopus oryzae
Details: XTT reduction
Readout name: Viability Inhibition (XTT) (%)

Molecule: CC[C@@H]([C@H](C)O)n1ncn(-c2ccc(N3CCN(c4ccc(OC[C@@H]5CO[C@@](Cn6cncn6)(c6ccc(F)cc6F)C5)cc4)CC3)cc2)c1=O [Posaconazole, reference compound]
Recorded measurement: 73

Molecule: Oc1c(C(Nc2nc3ccccc3s2)c2ccc(OC(F)F)cc2)ccc2cccnc12 (centres unmarked)
Recorded measurement: 77

Molecule: Oc1cccc(C(Nc2nccs2)c2ccc3cccnc3c2O)c1 (centres unmarked)
Recorded measurement: 59

Molecule: CCc1nc(N)nc(N)c1C#CC(C)c1cc(OC)cc(-c2ccncc2)c1 (centres unmarked)
Recorded measurement: 88

Molecule: CCCCC(CC)CNC(=N)NC(=N)NCCCCCCNC(=N)NC(=N)NCC(CC)CCCC (centres unmarked) [MMV396785, Alexidine, reference compound]
Recorded measurement: 89

###

Test system: R. microsporus
Assay: Antifungal susceptibility testing (broth microdilution, MIC and MFC)
Format: cell-based, Rhizopus microsporus var. microsporus
Settings: Rhizopus microsporus; lowest concentration that inhibits 50% of fungal growth, 48 h
Measured MIC50 accompanies every entry in the list below.

Molecule: CCc1nc(N)nc(N)c1C#CC(C)c1cc(OC)cc(-c2ccncc2)c1 (stereo not drawn)
Target: R. microsporus
Qualifier operator: =
MIC50, µM: 0.08
//
Molecule: Oc1cccc(C(Nc2nccs2)c2ccc3cccnc3c2O)c1 (stereo not drawn)
Target: R. microsporus
Qualifier operator: =
MIC50, µM: 5
//
Molecule: CC[C@@H]([C@H](C)O)n1ncn(-c2ccc(N3CCN(c4ccc(OC[C@@H]5CO[C@@](Cn6cncn6)(c6ccc(F)cc6F)C5)cc4)CC3)cc2)c1=O [Posaconazole, reference compound]
Target: R. microsporus
Qualifier operator: =
MIC50, µM: 2.5
//
Molecule: CCCCC(CC)CNC(=N)NC(=N)NCCCCCCNC(=N)NC(=N)NCC(CC)CCCC (stereo not drawn) [MMV396785, Alexidine, reference compound]
Target: R. microsporus
Qualifier operator: =
MIC50, µM: 1.25
//
Molecule: C[C@@H]1[C@H](O)[C@@H](C)/C=C/C=C/C=C/C=C/C=C/C=C/C=C/[C@H](O[C@@H]2O[C@H](C)[C@@H](O)[C@H](N)[C@@H]2O)C[C@@H]2O[C@](O)(C[C@@H](O)C[C@@H](O)[C@H](O)CC[C@@H](O)C[C@@H](O)CC(=O)O[C@H]1C)C[C@H](O)[C@H]2C(=O)O [Amphotericin B, reference compound]
Target: R. microsporus
Qualifier operator: >
MIC50, µM: 20
//
Molecule: Oc1c(C(Nc2nc3ccccc3s2)c2ccc(OC(F)F)cc2)ccc2cccnc12 (stereo not drawn)
Target: R. microsporus
Qualifier operator: =
MIC50, µM: 1.25

###

Tested on: R. oryzae
Assay: Antifungal drug synergy assay, Bliss independence model
Assay type: cell-based, Rhizopus oryzae
Parameters: concentration or dose not given beside the values
Conditions: combined with Posaconazole

Compound: CCCCC(CC)CNC(=N)NC(=N)NCCCCCCNC(=N)NC(=N)NCC(CC)CCCC (stereo not shown) [MMV396785, Alexidine, reference compound]
Target: R. oryzae
Efficacy of Combined Drugs, E obs: 91.9%
--
Compound: Oc1c(C(Nc2nc3ccccc3s2)c2ccc(OC(F)F)cc2)ccc2cccnc12 (stereo not shown)
Target: R. oryzae
Efficacy of Combined Drugs, E obs: 58.0%
--
Compound: Oc1cccc(C(Nc2nccs2)c2ccc3cccnc3c2O)c1 (stereo not shown)
Target: R. oryzae
Efficacy of Combined Drugs, E obs: 60.0%
--
Compound: CCc1nc(N)nc(N)c1C#CC(C)c1cc(OC)cc(-c2ccncc2)c1 (stereo not shown)
Target: R. oryzae
Efficacy of Combined Drugs, E obs: 60.2%

###

Measured inhibition at 5 µM accompanies every entry in the list below.
System: R. oryzae UCP1295
Experiment: Screening of the Pandemic Response Box library at 5 µM
Type: cell-based, Rhizopus oryzae
Conditions: Rhizopus arrhizus, UCP1295, 48 h, Table S1, mean of the four values, read-out: % of growth inhibition, Mean

Compound: CCCCC(CC)CNC(=N)NC(=N)NCCCCCCNC(=N)NC(=N)NCC(CC)CCCC (centres unmarked) [MMV396785, Alexidine, reference compound]
Measure unit: %
inhibition at 5 µM: 70.1

Compound: Oc1c(C(Nc2nc3ccccc3s2)c2ccc(OC(F)F)cc2)ccc2cccnc12 (centres unmarked) [MMV019724]
Measure unit: %
inhibition at 5 µM: 69.6

Compound: CCc1nc(N)nc(N)c1C#CC(C)c1cc(OC)cc(-c2ccncc2)c1 (centres unmarked) [MMV1580844]
Measure unit: %
inhibition at 5 µM: 70.2

Compound: Oc1cccc(C(Nc2nccs2)c2ccc3cccnc3c2O)c1 (centres unmarked) [MMV642550]
Measure unit: %
inhibition at 5 µM: 59.8

Compound: CC[C@@H]([C@H](C)O)n1ncn(-c2ccc(N3CCN(c4ccc(OC[C@@H]5CO[C@@](Cn6cncn6)(c6ccc(F)cc6F)C5)cc4)CC3)cc2)c1=O [Posaconazole, reference compound]
Measure unit: %
inhibition at 5 µM: 56.3

###

Measured ΔE accompanies every entry in the list below.
Test system: R. oryzae
Test: Antifungal drug synergy assay, Bliss independence model
Assay type: cell-based, Rhizopus oryzae
Conditions: combined with Amphotericin B, Eobs minus Eexp

Compound: CCc1nc(N)nc(N)c1C#CC(C)c1cc(OC)cc(-c2ccncc2)c1 (stereo not shown)
ΔE: 2.3%

Compound: Oc1c(C(Nc2nc3ccccc3s2)c2ccc(OC(F)F)cc2)ccc2cccnc12 (stereo not shown)
ΔE: −7.3%

Compound: Oc1cccc(C(Nc2nccs2)c2ccc3cccnc3c2O)c1 (stereo not shown)
ΔE: 23.5%

Compound: CCCCC(CC)CNC(=N)NC(=N)NCCCCCCNC(=N)NC(=N)NCC(CC)CCCC (stereo not shown) [MMV396785, Alexidine, reference compound]
ΔE: 1.7%

###

Measured Efficacy of Combined Drugs, E exp accompanies every entry in the list below.
Test system: R. oryzae
Test: Antifungal drug synergy assay, Bliss independence model
Type: cell-based, Rhizopus oryzae
Design: concentration or dose not given beside the values
Conditions: combined with Amphotericin B, expected by Bliss calculation
Readout name: Efficacy of Combined Drugs, E exp (%)

Molecule: Oc1c(C(Nc2nc3ccccc3s2)c2ccc(OC(F)F)cc2)ccc2cccnc12 (stereo not shown)
Recorded measurement: 82.1

Molecule: CCCCC(CC)CNC(=N)NC(=N)NCCCCCCNC(=N)NC(=N)NCC(CC)CCCC (stereo not shown) [MMV396785, Alexidine, reference compound]
Recorded measurement: 84.2

Molecule: Oc1cccc(C(Nc2nccs2)c2ccc3cccnc3c2O)c1 (stereo not shown)
Recorded measurement: 54.6

Molecule: CCc1nc(N)nc(N)c1C#CC(C)c1cc(OC)cc(-c2ccncc2)c1 (stereo not shown)
Recorded measurement: 58.2

Hey, just so you know, these numbers are from paper PMC9959553.
